# Tested on: SK-MEL-2 melanoma
# assay_summary: NCI tumour cell line growth inhibition, 48 h; in the data active = GI50 below about 0.43 µM; inactive = the rest
// one of active, inactive, no free text

Observe how each entry below is paired with its result.
compound=CCNC(=O)C#Cc1ccc2c(C(=Nc3ccc(CN(C)C)cc3)c3ccccc3)c(O)[nH]c2c1 system_tested="SK-MEL-2 melanoma" assigned_label=active
compound=O=C1NC(=NCc2ccccc2)S/C1=C\c1ccc2ncccc2c1 system_tested="SK-MEL-2 melanoma" assigned_label=inactive
compound=CC(C)[C@@H]1NC(=O)[C@]2(C)CSC(=N2)c2ccnc(c2)CNC(=O)C[C@@H](/C=C/CCS)OC1=O system_tested="SK-MEL-2 melanoma" assigned_label=active
compound="O=C(NC1CCCCC1)NS(=O)(=O)c1ccc(N2N=C3c4ccccc4CC3C2c2ccc(Cl)cc2)cc1 (configuration not stated)" system_tested="SK-MEL-2 melanoma" assigned_label=inactive
compound=O=[N+]([O-])c1cc([N+](=O)[O-])c(C(F)(F)F)cc1NN=C(c1ccc(O)cc1)c1ccc(O)cc1 system_tested="SK-MEL-2 melanoma" assigned_label=inactive
compound=Cc1ccc(-c2nc(N3CCNCC3)c3oc(-c4ccc(C)cc4)nc3n2)cc1 system_tested="SK-MEL-2 melanoma" assigned_label=inactive

Next up:
Problem: For "[O-][Cl+3]([O-])([O-])[O-].[O]=[Ru]=[O].c1ccc(-c2ccccn2)nc1.c1ccc(-c2ccccn2)nc1" , which call appears in the assay record?
Solution: inactive
